B1: ZMYND11 (parent)
chain: YCSIKCQQEHWHAEHKRTCRRKR

Variants of: B1
Assay: protein stability index of a GFP-peptide fusion (GPS, HEK-293T) (PSI 1-6); higher = more stable;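 note: lentivirally expressed fusions sorted by FACS into six bins by GFP to DsRed ratio, PSI derived from sequencing read proportions per bin multiplied by bin number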
Settings: c terminus: native
# key: entry, value: protein stability index
measuredQuantity: protein stability index

{"columns": ["sequenceString", "measured"],
 "data": [
  ["YCSIKCQQEHWHACHKRTCRRKR [E14C]", 2.54],
  ["YCSMKCQQEHWHAEHKRTCRRKR [I4M]", 1.83],
  ["YCSIKCQQEHWHAEHKRTSRRKR [C19S]", 2.82],
  ["MCSIKCQQEHWHAEHKRTCRRKR [Y1M]", 3.94],
  ["YCSIKCQQEHWHAEHKRTCWRKR [R20W]", 1.98],
  ["QCSIKCQQEHWHAEHKRTCRRKR [Y1Q]", 3.91],
  ["YCSIKCQQEHWHAEHKRTCRRGR [K22G]", 2.33],
  ["YCSIKMQQEHWHAEHKRTCRRKR [C6M]", 1.9],
  ["YCSIKCQQEHRHAEHKRTCRRKR [W11R]", 2.96],
  ["YCSIKCQQEHPHAEHKRTCRRKR [W11P]", 4.14],
  ["YCSIKCQQESWHAEHKRTCRRKR [H10S]", 2.36],
  ["YCSIKCQQEHWHAEHKRTCQRKR [R20Q]", 1.51],
  ["YCNIKCQQEHWHAEHKRTCRRKR [S3N]", 2.85],
  ["DCSIKCQQEHWHAEHKRTCRRKR [Y1D]", 2.58],
  ["YCSIKCQQEHWHWEHKRTCRRKR [A13W]", 1.32],
  ["YCSIKCQLEHWHAEHKRTCRRKR [Q8L]", 1.72],
  ["PCSIKCQQEHWHAEHKRTCRRKR [Y1P]", 3.46],
  ["YCSIKCQQEHWHAEHKRTCVRKR [R20V]", 2.8],
  ["YCLIKCQQEHWHAEHKRTCRRKR [S3L]", 1.7],
  ["YCSIKCQQEHWHAQHKRTCRRKR [E14Q]", 2.26],
  ["YCSIKCQQEHWHAEHKRTCRHKR [R21H]", 1.97],
  ["YCSQKCQQEHWHAEHKRTCRRKR [I4Q]", 1.94]
]}
